- system-under-test: Ku70/80 heterodimer (Ku) (UniProt P12956;P13010 1-609;1-732)
- Sequence (P12956 whole entry, chain 1 of 2): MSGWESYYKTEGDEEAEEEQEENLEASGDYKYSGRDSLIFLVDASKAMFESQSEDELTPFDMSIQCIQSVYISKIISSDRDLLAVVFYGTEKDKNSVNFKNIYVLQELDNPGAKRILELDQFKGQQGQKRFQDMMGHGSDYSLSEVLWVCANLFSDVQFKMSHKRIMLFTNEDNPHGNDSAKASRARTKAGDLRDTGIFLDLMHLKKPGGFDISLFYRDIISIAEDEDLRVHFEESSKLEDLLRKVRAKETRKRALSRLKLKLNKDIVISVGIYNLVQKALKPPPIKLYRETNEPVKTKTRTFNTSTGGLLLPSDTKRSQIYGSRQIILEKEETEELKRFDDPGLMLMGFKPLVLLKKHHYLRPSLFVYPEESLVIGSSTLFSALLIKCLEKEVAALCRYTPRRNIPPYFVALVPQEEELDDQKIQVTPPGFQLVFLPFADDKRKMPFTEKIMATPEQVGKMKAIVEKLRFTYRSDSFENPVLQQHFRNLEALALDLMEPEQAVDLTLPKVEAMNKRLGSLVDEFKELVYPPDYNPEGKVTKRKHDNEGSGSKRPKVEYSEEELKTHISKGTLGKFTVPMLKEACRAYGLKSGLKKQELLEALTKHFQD
- Sequence (P13010 whole entry, chain 2 of 2): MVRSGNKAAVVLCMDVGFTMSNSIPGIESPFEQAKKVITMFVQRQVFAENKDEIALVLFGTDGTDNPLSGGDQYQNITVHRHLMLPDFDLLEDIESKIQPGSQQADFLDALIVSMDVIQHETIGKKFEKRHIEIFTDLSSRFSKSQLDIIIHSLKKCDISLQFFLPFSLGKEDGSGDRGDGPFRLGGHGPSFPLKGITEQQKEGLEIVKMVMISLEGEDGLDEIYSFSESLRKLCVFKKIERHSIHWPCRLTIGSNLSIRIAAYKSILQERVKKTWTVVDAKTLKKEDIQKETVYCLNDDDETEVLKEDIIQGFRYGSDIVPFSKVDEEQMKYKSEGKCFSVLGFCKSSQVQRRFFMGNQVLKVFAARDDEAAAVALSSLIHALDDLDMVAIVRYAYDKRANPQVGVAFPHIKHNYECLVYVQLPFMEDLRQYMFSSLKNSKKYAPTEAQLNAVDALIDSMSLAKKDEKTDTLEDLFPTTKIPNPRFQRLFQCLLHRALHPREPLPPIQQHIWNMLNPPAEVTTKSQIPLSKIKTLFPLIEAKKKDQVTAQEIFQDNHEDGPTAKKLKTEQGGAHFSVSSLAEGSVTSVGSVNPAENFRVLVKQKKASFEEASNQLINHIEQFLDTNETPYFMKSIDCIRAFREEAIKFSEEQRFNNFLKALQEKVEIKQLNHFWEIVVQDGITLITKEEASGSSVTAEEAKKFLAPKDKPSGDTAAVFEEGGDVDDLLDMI
- test-name: EMSA
For each entry below, report its Kd value.
Kindly provide the numeric value in nM only, without the unit symbol.

Lab note: BZ57/BZ109 25 bp Cy3 duplex (dsDNA, internal Cy3 in backbone after nt 4 of each strand) DNA 1: GATGCCTCCAAGGTCGACGATGCAG DNA 2: CTGCATCGTCGACCTTGGAGGCATC gave Kd of 0.11

Per the record, BZ91/BZ107 25 bp duplex (dsDNA) DNA 1: GATGCCTCCAAGGTCGACGATGCAG DNA 2: CTGCATCGTCGACCTTGGAGGCATC has Kd of 0.086
